SUBJECT_OF_TEST: UniProt:P9WIU7
ASSAY_SUMMARY: Inhibition assay for mtDAPDC, coupled carbon dioxide assay
Format: biochemical
READOUT_KIND: pKi
Field pKi (float): negative decimal logarithm of the concentration in molar.

Problem: Requested read-out: pKi. Entry: NCCCC[C@H](N)C(=O)O
Solution: 2.74

----------
SUBJECT_OF_TEST: mtDAPDC (Mycobacterium tuberculosis)
Sequence (P9WIU7 whole entry, looked up): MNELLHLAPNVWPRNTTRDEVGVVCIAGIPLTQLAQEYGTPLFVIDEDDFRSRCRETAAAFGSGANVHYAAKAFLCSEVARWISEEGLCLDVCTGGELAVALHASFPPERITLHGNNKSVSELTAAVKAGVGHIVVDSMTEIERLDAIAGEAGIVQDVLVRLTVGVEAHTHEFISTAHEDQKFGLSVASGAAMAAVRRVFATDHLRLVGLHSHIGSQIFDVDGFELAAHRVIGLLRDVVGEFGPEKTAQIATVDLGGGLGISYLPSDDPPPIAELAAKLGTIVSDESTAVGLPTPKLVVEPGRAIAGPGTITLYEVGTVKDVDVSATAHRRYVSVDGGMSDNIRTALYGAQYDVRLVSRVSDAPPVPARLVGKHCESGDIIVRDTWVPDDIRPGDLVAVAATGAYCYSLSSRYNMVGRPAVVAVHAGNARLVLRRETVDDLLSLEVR
ASSAY_SUMMARY: Inhibition assay for mtDAPDC, coupled carbon dioxide assay
Assay type: biochemical
CONDITION_PARAMETERS: D,L-DAP held at Km (400 μM); competitive inhibition assumed (eq 1)
# pKi per entry
Field pKi (float): negative decimal logarithm of the concentration in molar.

- MOLECULE: "NC(CCCC(N)C(=O)O)C(=O)O [L,L-DAP]"
  SUBJECT_OF_TEST: "mtDAPDC (Mycobacterium tuberculosis)"
  pKi: 2.80

Next:
Problem: Requested read-out: pKi. Entry: NCCCC[C@@H](N)C(=O)O [D-lysine]
Solution: 1.59
